Test system: human ovarian cancer cell line A2780
Experiment: MTT cell viability assay, A2780
Format: cell-based
Settings: Homo sapiens, A2780, 48 h, 48 h incubation, A2780 cells
Measurement Type: IC50

Examples with their reported IC50 follow.
{"Molecule": "O=c1c(O)c(-c2ccc(O)c(O)c2)oc2cc(O)cc(O)c12 [Quercetin, quercetin, reference compound]", "Experimental Value": "19.4 µM"}
{"Molecule": "O=C1C[C@@](O)(c2ccc(O)cc2)Oc2cc(O)cc(O[C@@H]3O[C@H](CO)[C@@H](O)[C@H](O)[C@H]3O)c21 [Compound 6]", "Experimental Value": "> 100 µM"}
{"Molecule": "COc1ccc(-c2coc3cc(OC4OC(CO)C(O)C(O)C4O)c(OC)c(O)c3c2=O)cc1 [Compound 14, irisolidone-7-O-β-D-glucopyranoside]", "Experimental Value": "< 100 µM"}

## Task Find the recorded IC50 belonging to COc1c(O)cc2occ(-c3ccc(O)c(O)c3)c(=O)c2c1O [Compound 12, irilin D] and report it.
## Result < 100 µM

## Task Bench note: what IC50 did COc1c(OC2OC(COC3OCC(O)C(O)C3O)C(O)C(O)C2O)cc2occ(-c3ccc(O)cc3)c(=O)c2c1O (centres unmarked) [Compound 15] show?
## Result > 100 µM

## Task I would be grateful if you could share the reported IC50 for C[C@@H]1O[C@@H](OC[C@H]2O[C@@H](OCc3ccccc3)[C@H](O)[C@@H](O)[C@@H]2O)[C@H](O)[C@H](O)[C@H]1O [Compound 22, hydrageifolin I] .
## Result > 100 µM

## Task // IC50 lookup, key: COc1c(O[C@@H]2O[C@H](CO)[C@@H](O)[C@H](O)[C@H]2O)cc2occ(-c3ccc(O)cc3)c(=O)c2c1O [Compound 13, tectoridin]
## Result > 100 µM

## Task Would you kindly share the measured IC50 for C[C@@H]1O[C@@H](OC[C@H]2O[C@@H](Oc3c(-c4ccc(O)cc4)oc4cc(O)cc(O)c4c3=O)[C@H](O)[C@@H](O)[C@@H]2O)[C@H](O)[C@H](O)[C@H]1O [Compound 9, nicotiflorin] ?
## Result > 100 µM

====

Test system: human ovarian cancer cell line A2780
Test: MTT cell viability assay, A2780
Type: cell-based
Settings: 48 h incubation, A2780 cells
Measurement Type: IC50 (µM)

{"Molecule": "N.N.[Cl][Pt][Cl] [Cisplatin, cisplatin, reference compound]", "IC50 [µM]": 10.7}
{"Molecule": "COc1ccc(-c2coc3cc(OC4OC(CO)C(O)C(O)C4O)c(OC)c(O)c3c2=O)cc1 [Compound 14, irisolidone-7-O-β-D-glucopyranoside]", "IC50 [µM]": 71.2}
{"Molecule": "COc1c(O)cc2occ(-c3ccc(O)c(O)c3)c(=O)c2c1O", "IC50 [µM]": 57.5}
